Could you please report measured melting point for the items listed next?

Look over these answered cases.
| molecule | melting point |
| --- | --- |
| O=C1N=CNC(O)C1C(=O)Nc1ccccc1 (centres undefined) | 200 to 208 °C |
| Cc1c(Br)c(O)c(Br)c(C)c1-c1c(C)c(Br)c(O)c(Br)c1C | 242 to 245 °C |
| CCOc1cc2c(c3c1OC(C)(C)C3)C(c1cccc(C(=O)NCC(N)=O)c1)=NC(C)(C)C2 | 127 to 128 °C |
| O=C1CCc2c1cccc2[N+](=O)[O-] | 94 to 97 °C |
| CCC(C)(C)c1cc(C(=O)O)c(O)c(C(C)(C)CC)c1 | 132 to 133 °C |

Each molecule below has a reported value. Please supply its melting point.
1. COC(=O)c1cc(OC)cc(C(=O)OC)c1
2. O=C(NC1CCCNC1)c1ccc2[nH]ncc2c1 (centres undefined)
3. CN1CCC(c2n[nH]c3cc(Cl)ccc23)CC1
4. O=C(O)c1ccc2c(c1)Sc1ccc(F)cc1C(O)C2 (centres undefined)

108 to 109 °C
265 to 266 °C
211 to 213 °C
204 to 210 °C

---

For each record, write down the corresponding melting point.

Please give melting point for each item listed below.
1. CC(C)Oc1cn(-c2cccc(C(F)(F)F)c2)nc(-c2ccnn2-c2ccccc2)c1=O
2. COc1cn(-c2cc(-c3cnn(C)c3)ccc2F)nc(-c2ccnn2-c2ccccc2)c1=O
3. CN1CCN(C(c2ccccc2)c2ccccc2)CC1(C)Cc1ccc2c(c1)OCCO2 (configuration not stated)
4. O=C(NC(=O)c1c(F)cccc1F)Nc1cc(C(F)(F)F)ccn1

137 to 139 °C
93 to 102 °C
118 to 120 °C
167 to 169 °C

# map each molecule to its melting point
1. CC(C)CCOC(=O)COc1cc(F)ccc1C(=O)NCc1cccc([N+](=O)[O-])c1
2. C=CC1(C=CC)OC(=O)N(c2cc(Cl)cc(Cl)c2)C1=O (configuration not stated)
3. O=C(OCc1ccccc1)N1CCc2ccccc2C12CCC(C(=O)O)(C(=O)O)CC2
4. CCCCCS(=O)(=O)NC(=O)/C(=C/c1ccc(OCCOC)cc1Oc1ncc(C(F)(F)F)cc1Cl)CC
5. Cc1c(NC(=O)c2ccc(OC[C@H]3CCCO3)cc2)ccc2cc(CNCC(C)(C)C)cnc12
6. OCC1CC(n2c(SCc3ccccc3)nc3cc(Cl)c(Cl)cc32)C(O)C1O (configuration not stated)
7. COc1cccc(CNc2ncnc3c2sc2nc(N(C)C)c4c(c23)CC(C)(C)CC4)c1OC

["65 to 68 °C", "141 °C", "199 to 200 °C", "104 to 106 °C", "110 to 111 °C", "160 to 162 °C", "91.9 to 93 °C"]

List the reported melting point of each molecule below.
1. CNC(Cc1ccc(Cl)cc1[N+](=O)[O-])c1ccsc1C (configuration not stated)
2. O=c1cc(-c2ccccc2)c2c(OCc3nnn[nH]3)cc(OCc3nnn[nH]3)cc2o1
3. Cc1cccc2nc3c(cc12)oc1cccc(Cl)c13
4. CCOC(=O)c1cn2c3c(c(F)c(F)cc3c1=O)OCC2CI (configuration not stated)
5. OC1CCCc2nc3cc(F)ccc3c(NCc3ccccc3C(F)(F)F)c21 (configuration not stated)
6. NC(=O)Cc1ccc2c(c1)C(=O)c1ccccc1CO2
7. CCCCCC1C=CC(c2ccc(F)c(F)c2)=CC1 (configuration not stated)

1. 44 to 46 °C
2. 222 to 224 °C
3. 169 to 172 °C
4. 214 to 217 °C
5. 149 to 153 °C
6. 157 to 158 °C
7. 31 °C
